# PROCEDURE SUMMARY: Selectivity index, ratio of IC50 for human PBMC cells to IC50 for human HCT116 cells
# Type: toxicity
# CONDITION NOTES: PBMC cells and HCT116 cells, read-out: Ratio IC50
MEASURED ATTRIBUTE: selectivity ratio
Field format: numeric only.

Input line: May I ask what selectivity ratio has been recorded for "COc1ccc(-c2cc(OCCN(C)c3ncc(C(=O)NO)cn3)c3ncnc(C)c3c2)cn1" ?
Output line: 8240

* * *

# PROCEDURE SUMMARY: Tmax in ICR mouse at 3 mg/kg, iv measured after 0.033 to 24 hrs by LC/MS/MS analysis
# Type: ADME, organism-based
# CONDITION NOTES: in vivo
MEASURED ATTRIBUTE: Tmax (min)
Numeric answer only, unit min assumed.

Input line: Requested field: Tmax. Item: "COc1ncc(-c2cc(OCCCCCCC(=O)NO)c3ncnc(C)c3c2)cc1F"
Output line: 1.8

Input line: Reported Tmax, compound "COc1ccc(-c2cc(OCCN(C)c3ncc(C(=O)NO)cn3)c3ncnc(C)c3c2)cn1" : ____
Output line: 1.8

* * *

# TARGET OF ASSAY: Phosphatidylinositol 4,5-bisphosphate 3-kinase catalytic subunit alpha isoform (Homo sapiens, UniProt P42336)
# Sequence (P42336 whole entry, canonical isoform): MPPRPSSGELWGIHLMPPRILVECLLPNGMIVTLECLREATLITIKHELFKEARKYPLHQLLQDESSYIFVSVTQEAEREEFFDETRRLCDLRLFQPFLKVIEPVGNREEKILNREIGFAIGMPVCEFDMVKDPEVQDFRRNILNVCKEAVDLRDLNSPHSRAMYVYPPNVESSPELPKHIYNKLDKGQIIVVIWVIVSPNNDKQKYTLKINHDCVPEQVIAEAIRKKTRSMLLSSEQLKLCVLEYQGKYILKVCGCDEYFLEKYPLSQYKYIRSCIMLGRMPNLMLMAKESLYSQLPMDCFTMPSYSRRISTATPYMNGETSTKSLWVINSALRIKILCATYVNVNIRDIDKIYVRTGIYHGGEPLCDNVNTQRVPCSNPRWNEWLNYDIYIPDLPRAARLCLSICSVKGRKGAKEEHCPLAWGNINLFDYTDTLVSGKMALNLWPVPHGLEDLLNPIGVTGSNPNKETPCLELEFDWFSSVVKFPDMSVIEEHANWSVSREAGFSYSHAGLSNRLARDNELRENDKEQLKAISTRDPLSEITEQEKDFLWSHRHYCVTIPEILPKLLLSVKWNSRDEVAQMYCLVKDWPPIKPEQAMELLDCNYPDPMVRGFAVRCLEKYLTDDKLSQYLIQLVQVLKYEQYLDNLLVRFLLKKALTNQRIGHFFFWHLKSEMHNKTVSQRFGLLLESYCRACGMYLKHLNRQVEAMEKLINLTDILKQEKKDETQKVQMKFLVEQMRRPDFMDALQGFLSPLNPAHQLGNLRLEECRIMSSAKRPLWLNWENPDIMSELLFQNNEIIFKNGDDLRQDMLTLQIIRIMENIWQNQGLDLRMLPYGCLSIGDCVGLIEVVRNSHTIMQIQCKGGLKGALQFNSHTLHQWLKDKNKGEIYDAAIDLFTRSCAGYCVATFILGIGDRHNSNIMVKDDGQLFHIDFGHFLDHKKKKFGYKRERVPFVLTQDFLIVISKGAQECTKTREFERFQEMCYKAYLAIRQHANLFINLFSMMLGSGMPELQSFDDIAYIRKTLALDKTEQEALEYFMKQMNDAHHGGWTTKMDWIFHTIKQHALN
# PROCEDURE SUMMARY: Inhibition of recombinant human PI3Kalpha using PIP2 as substrate incubated for 1 hr by kinase-glo assay
MEASURED ATTRIBUTE: log10 IC50 (log10 of the value in nM)
Note the log scale: values are log10 of IC50 expressed in nM.

Use these answered entries as a reference point.
[[record]]
structure_smiles_string = "COc1ccc(-c2cc(OCCCN(C)c3ncc(C(=O)NO)cn3)c3ncnc(C)c3c2)cn1"
measured_attribute = "log10 IC50"
experimental_value = 2.33

[[record]]
structure_smiles_string = "COc1ncc(-c2cc(OCCCCCC(=O)NO)c3ncnc(C)c3c2)cc1NS(=O)(=O)c1ccc(F)cc1F"
measured_attribute = "log10 IC50"
experimental_value = -0.18

[[record]]
structure_smiles_string = "COc1ccc(-c2cc(OCC(=O)NO)c3ncnc(C)c3c2)cn1"
measured_attribute = "log10 IC50"
experimental_value = 1.83

[[record]]
structure_smiles_string = "COc1ccc(-c2cc(OCCCCC(=O)NO)c3ncnc(C)c3c2)cn1"
measured_attribute = "log10 IC50"
experimental_value = 1.71


Pending compound:
Input line: // query log10 IC50 value for entry "COc1ccc(-c2cc(OCCCCCCCCC(=O)NO)c3ncnc(C)c3c2)cn1"
Output line: 2.21

* * *

# PROCEDURE SUMMARY: Tmax in ICR mouse at 30 mg/kg, po measured after 0.083 to 24 hrs by LC/MS/MS analysis
# Format: ADME, organism-based
# CONDITION NOTES: in vivo
MEASURED ATTRIBUTE: Tmax (h)
# output: bare number, implied unit h

[[record]]
structure_smiles_string = "COc1ncc(-c2cc(OCCCCCCC(=O)NO)c3ncnc(C)c3c2)cc1F"
value_unit = "h"
experimental_value = 0.3


Kindly review the next compound as well.
Input line: Which Tmax value is on record for "COc1ccc(-c2cc(OCCN(C)c3ncc(C(=O)NO)cn3)c3ncnc(C)c3c2)cn1" ?
Output line: 1.8

* * *

# PROCEDURE SUMMARY: Half life in mouse liver microsomes preincubated for 5 mins followed by NADPH addition by LC/MS analysis
# Format: ADME, Microsome
MEASURED ATTRIBUTE: half-life (min)
Expressed in min, but write only the number.

Input line: What value of measured half-life is listed for "COc1ncc(-c2cc(OCCCCCCC(=O)NO)c3ncnc(C)c3c2)cc1F" ?
Output line: 24.6

* * *

# TARGET OF ASSAY: UniProt Q96DB2
# Sequence (Q96DB2 whole entry): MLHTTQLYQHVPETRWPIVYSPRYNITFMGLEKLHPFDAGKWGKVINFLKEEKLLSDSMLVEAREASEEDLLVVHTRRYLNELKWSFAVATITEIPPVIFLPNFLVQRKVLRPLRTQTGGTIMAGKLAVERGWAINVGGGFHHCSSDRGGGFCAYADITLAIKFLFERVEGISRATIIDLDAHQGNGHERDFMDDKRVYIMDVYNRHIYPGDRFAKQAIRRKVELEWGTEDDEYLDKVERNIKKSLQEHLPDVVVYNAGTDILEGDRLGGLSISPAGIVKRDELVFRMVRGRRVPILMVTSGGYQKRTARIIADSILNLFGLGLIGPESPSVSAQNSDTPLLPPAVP
# PROCEDURE SUMMARY: Inhibition of recombinant human full length HDAC11 expressed in baculovirus infected Sf9 insect cells using Ac-peptide as substrate preincubated for 15 mins followed by substrate addition and measured after 1 hr
pIC50: −log10 of the molar value.
MEASURED ATTRIBUTE: pIC50

[[record]]
structure_smiles_string = "COc1ncc(-c2cc(OCCCCCCC(=O)NO)c3ncnc(C)c3c2)cc1F"
measured_attribute = "pIC50"
experimental_value = "< 6.00"


Next, consider the following molecule.
Input line: Form field: reported pIC50 of "COc1ccc(-c2cc(OCCN(C)c3ncc(C(=O)NO)cn3)c3ncnc(C)c3c2)cn1"
Output line: < 6.00

* * *

Listing: IC50 of selected compounds
# Tested on: U-87 MG
# PROCEDURE SUMMARY: Antiproliferative activity against human U87 cells after 96 hrs by MTT assay
# Assay type: functional, cell-based, U-87MG ATCC
Give the value, in units of µM, as a plain number.

Input line: IC50 for "COc1ccc(-c2cc(OCCN(C)c3ncc(C(=O)NO)cn3)c3ncnc(C)c3c2)cn1" ?
Output line: 0.34

Input line: Dear colleague, I am looking for the recorded IC50 of the following compound: COc1ccc(-c2nc(N3CCOCC3)c3sc(CN(C)c4ncc(C(=O)NO)cn4)cc3n2)cn1 [FIMEPINOSTAT]
Output line: 0.007

Input line: What does the data say about its IC50? Entry: "Nc1cc(C(F)(F)F)c(-c2cc(N3CCOCC3)nc(N3CCOCC3)n2)cn1"
Output line: 4.8

Input line: Query: IC50; subject: "COc1ncc(-c2cc(OCCCCCCC(=O)NO)c3ncnc(C)c3c2)cc1F"
Output line: 3.2

* * *

Listed next: entries and their corresponding pIC50.
# TARGET OF ASSAY: Phosphatidylinositol 4,5-bisphosphate 3-kinase catalytic subunit alpha isoform (Homo sapiens)
# PROCEDURE SUMMARY: Inhibition of recombinant human PI3Kalpha using PIP2 as substrate incubated for 1 hr by kinase-glo assay
// returns pIC50 (minus log10 of molar concentration), number only

Example entries begin here.
[[record]]
structure_smiles_string = "COc1ncc(-c2cc(OCCCCCCCCC(=O)NO)c3ncnc(C)c3c2)cc1F"
experimental_value = 6.94

[[record]]
structure_smiles_string = "CCN(CCOc1cc(-c2ccc(OC)nc2)cc2c(C)ncnc12)c1ncc(C(=O)NO)cn1"
experimental_value = 6.71

[[record]]
structure_smiles_string = "COc1ncc(-c2cc(OCCCCCCCC(=O)NO)c3ncnc(C)c3c2)cc1NS(=O)(=O)c1ccc(F)cc1F"
experimental_value = 9.20

[[record]]
structure_smiles_string = "COc1ncc(-c2cc(OCCCCCCC(=O)NO)c3ncnc(C)c3c2)cc1NS(C)(=O)=O"
experimental_value = 8.64


Below: the item to evaluate.
Input line: Tell me the measured pIC50 of "COc1ccc(-c2cc(OCCCC(=O)NO)c3ncnc(C)c3c2)cn1" , please.
Output line: 7.14

* * *

# TARGET OF ASSAY: Phosphatidylinositol 4,5-bisphosphate 3-kinase catalytic subunit alpha isoform (Homo sapiens)
# PROCEDURE SUMMARY: Inhibition of recombinant human PI3Kalpha using PIP2 as substrate incubated for 1 hr by kinase-glo assay
pIC50: −log10 of the molar value.
Assign class by pIC50: not lower than 8 means Satisfied; lower than 8 means Not satisfied.

Here are 3 compounds together with their reported answers.
[[record]]
structure_smiles_string = "COc1ncc(-c2cc(OCCCC(=O)NO)c3ncnc(C)c3c2)cc1NS(=O)(=O)c1ccc(F)cc1F"
class = "Satisfied"

[[record]]
structure_smiles_string = "COc1ncc(-c2cc(OCCCNc3ncc(C(=O)NO)cn3)c3ncnc(C)c3c2)cc1F"
class = "Not satisfied"

[[record]]
structure_smiles_string = "COc1ccc(-c2cc(OCCN(c3ncc(C(=O)NO)cn3)C(C)C)c3ncnc(C)c3c2)cn1"
class = "Not satisfied"


Input line: I'd appreciate it if you could say whether "COc1ncc(-c2cc(OCCCN(C)c3ncc(C(=O)NO)cn3)c3ncnc(C)c3c2)cc1NS(=O)(=O)c1ccc(F)cc1F" has pIC50 at least equal to 8.
Output line: Satisfied

Input line: Please tell me: is the compound "COc1ncc(-c2cc(OCCNc3ncc(C(=O)NO)cn3)c3ncnc(C)c3c2)cc1F" at or over 8 in terms of pIC50?
Output line: Not satisfied

Input line: Say whether "COc1ccc(-c2cc(OCCN(C)c3ncc(C(=O)NO)cn3)c3ncnc(C)c3c2)cn1" shows pIC50 of 8 or more.
Output line: Not satisfied

Input line: Entry "COc1ncc(-c2cc(OCCCCCCCCC(=O)NO)c3ncnc(C)c3c2)cc1NS(C)(=O)=O" : is its pIC50 no less than 8?
Output line: Satisfied

Input line: Does pIC50 meet or surpass 8 for "COc1ncc(-c2cc(OCCCCCC(=O)NO)c3ncnc(C)c3c2)cc1NS(C)(=O)=O" ?
Output line: Satisfied

Input line: Quick check, pIC50 >= 8? "COc1ncc(-c2cc(OCCCCCCCC(=O)NO)c3ncnc(C)c3c2)cc1NS(C)(=O)=O"
Output line: Satisfied

Input line: Quick check: does "COc1ncc(-c2cc(OCCCCCCC(=O)NO)c3ncnc(C)c3c2)cc1NS(=O)(=O)c1ccc(F)cc1F" have pIC50 greater than or equal to 8?
Output line: Satisfied

Input line: Is it the case that "COc1ncc(-c2cc(OCCCCCCCC(=O)NO)c3ncnc(C)c3c2)cc1F" has pIC50 reaching or exceeding 8?
Output line: Not satisfied

Input line: Answer whether pIC50 of "COc1ncc(-c2cc(OCCN(C)c3ncc(C(=O)NO)cn3)c3ncnc(C)c3c2)cc1NS(=O)(=O)c1ccc(F)cc1F" is greater than or equal to 8.
Output line: Satisfied

Input line: Has "CCN(CCOc1cc(-c2cnc(OC)c(F)c2)cc2c(C)ncnc12)c1ncc(C(=O)NO)cn1" a recorded pIC50 greater than or equal to 8?
Output line: Not satisfied

Input line: Textbook exercise: given the entry "COc1ncc(-c2cc(OCCCCCC(=O)NO)c3ncnc(C)c3c2)cc1F" , state whether its pIC50 is greater than or equal to 8.
Output line: Not satisfied

Input line: Answer whether pIC50 of "COc1ncc(-c2cc(OCCCCNc3ncc(C(=O)NO)cn3)c3ncnc(C)c3c2)cc1F" is greater than or equal to 8.
Output line: Not satisfied

Input line: Check this compound for pIC50 at or above 8: "COc1ccc(-c2cc(OCCCCCC(=O)NO)c3ncnc(C)c3c2)cn1"
Output line: Not satisfied

Input line: Please check the record "COc1ccc(-c2cc(OCCCCCCCC(=O)NO)c3ncnc(C)c3c2)cn1" and state if its pIC50 is at or above 8.
Output line: Not satisfied

Input line: Given "COc1ccc(-c2cc(OCCCCCCC(=O)NO)c3ncnc(C)c3c2)cn1" , state whether its pIC50 is at least 8.
Output line: Not satisfied

Input line: State whether the measured pIC50 reaches 8, counting equality as reaching it, for "COc1ncc(-c2cc(OCCCCCCCCC(=O)NO)c3ncnc(C)c3c2)cc1NS(=O)(=O)c1ccc(F)cc1F"
Output line: Satisfied
